In this section, each of the binders is paired with its reported SPOT intensity.
Biological target: T1, Lsb4, P32793
T1 sequence (P32793 402-468, looked up): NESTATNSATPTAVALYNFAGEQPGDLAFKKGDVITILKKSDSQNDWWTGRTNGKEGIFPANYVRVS
Experiment: SPOT array
Conditions: median of control spots 397

Binder	SPOT intensity
AHFQPQRTAPKPPIS	4
SSTPTTPERPKRKSG	363
SNRRPVPRRPSQPLN	333
RHLKLVPSTPMDIPW	6
ISNFVPPNLPMRRFK	452
TKPTPPPKPSHLKPK	5
VKPRQLFPIPLNKVD	0
TSFKGRPKPPKTLKH	0
EREKALPPIPFTTTL	2
LRIKRKPVQTFFEFI	12
RPPRPPPKPLHLRTE	201
FTLPPPPPPPGLDEL	0
KRRAPPPVPKKPSSR	150
VNIPSPSSSPPPIPK	0
NMLKKKPLKKPLKRF	1
